- study_target: DRD2-T4L(Sf9) I122^3.40A/L375^6.37A/L379^6.41A (Homo sapiens, UniProt P14416, I122A/L375A/L379A)
- method_notes: biochemical
- experimental_setup: pKi
property: pKi
Remember, pKi is on a log scale: it is -log10 of the molar concentration.

What value of pKi has been reported for the following compound? O=c1[nH]c2cccc(N3CCN(Cc4cccc(-c5ccccc5)c4)CC3)c2o1
9.25

// provenance: paper PMC5843546
